tested on: Nucleic Acid; test: Binding affinity to Escherichia coli pBR322 DNA assessed as DNA migration at 200 uM after 15 mins by agarose gel electrophoresis; format: nucleic-acid assay
The source made the active and inactive calls. The calls are words filed in the database; no cut-off is given here.
Hi! Could you answer with just one of these? active, inactive

{"smiles.entry": "COc1cccc2c1C(=O)c1c(O)c3c(c(O)c1C2=O)C[C@@](O)(C(=O)CO)C[C@@H]3O[C@H]1C[C@H](N)[C@H](O)[C@H](C)O1", "assigned.label": "active"}
{"smiles.entry": "C[C@@H]1O[C@@H](OCc2cc(O)c3c(c2)C(=O)c2cccc(O)c2C3=O)C[C@@H](N)[C@H]1O", "assigned.label": "inactive"}
{"smiles.entry": "C[C@H]1O[C@@H](OCc2cc(O)c3c(c2)C(=O)c2cccc(O)c2C3=O)C[C@@H](N)[C@@H]1O", "assigned.label": "inactive"}

// query Fill in: this test's call for C[C@@H]1O[C@@H](OCc2cc(O)c3c(c2)C(=O)c2cccc(O)c2C3=O)C[C@H](N)[C@H]1O is ___
// result inactive

// query Fill in: this test's call for C[C@H]1O[C@@H](OCc2cc(O)c3c(c2)C(=O)c2cccc(O)c2C3=O)C[C@H](N)[C@@H]1O is ___
// result inactive

// query Fill in: this test's call for O=C1c2cccc(O)c2C(=O)c2c(O)cc(CO)cc21 is ___
// result inactive
